Data credit: the RNAGym collection of RNA variant scans (doi:10.7554/elife.80360)

B1: Hairpin Ribozyme (parent)
chain: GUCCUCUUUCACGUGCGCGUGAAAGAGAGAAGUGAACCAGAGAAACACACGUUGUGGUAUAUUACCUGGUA

# Variants of: B1
# test-description: self-cleavage, relative activity (ratio to wild type); higher = more cleavage; co-transcriptional
The variants listed here are annotated with their self-cleavage.
Form rule: numeric answer, no unit written next to it.

>>> print(df.to_string())
                           sequence_content     val
0  GUCCUCUUUCACGUGCGCGUGAAAGAGAGAAAUGAACCAGAGAAACACAGGUUGUGGUAUAUUACCUGGUA [G32A C50G]   0.179
1  GUCCUCUUUCACGUGCGCGUGAAUGAGAGAAGUGAACCAGAGAAACACACGUUGUGGUAUCUUACCUGGUA [A24U A61C]  0.0949
2  GUCCUCUUUCACGUGCGCGUGAACGAGAGAAGUGAACCAGAUAAACACACGUUGUGGUAUAUUACCUGGUA [A24C G42U]   0.374
3  GUCCUCUUUCACGUGCACGUGAGAGAGAGAAGUGAACCAGAGAAACACACGUUGUGGUAUAUUACCUGGUA [G17A A23G]   0.824
4  GUCCUCUUUCACGUGCGCGUGAAAGAGAGGAGAGAACCAGAGAAACACACGUUGUGGUAUAUUACCUGGUA [A30G U33A]  0.0512
5  GUCCUCUUUCACGUGCGAGUGAAAGAGAGAAGUGAACCAGAGAAACACACGUUAUGGUAUAUUACCUGGUA [C18A G54A]   0.591
6  GUCCUCUUUCACGUGCGCGUGAAAGAGAGUAGUGAACCAGAGAAACACACGUUGGGGUAUAUUACCUGGUA [A30U U55G]   0.106
7  GUCCUCUUUCACGUGCGCAUGAAAGAGAGAAGUGAACCAGAGAAACACACGUUGUGAUAUAUUACCUGGUA [G19A G57A]   0.152

Data point: GUCCUCUUUCACGUGCGCGUGAAAGAGAGAAGAGAACCAGAGAAACACCCGUUGUGGUAUAUUACCUGGUA [U33A A49C] ; self-cleavage = 0.163

Sure, the documented self-cleavage for GUCCUCUUUCACGUGCGCGUGAAAGAGAGAAGUGAACCAGAGAAACACACGUCGUGGUAGAUUACCUGGUA [U53C U60G] is 0.557

Reported self-cleavage for GUCCUCUUUCACGUGCGCGUGAAGGAGAGAAGUGAACCAGAGAAACCCACGUUGUGGUAUAUUACCUGGUA [A24G A47C] was 0.245

GUCCUCUUUCACGUGCGCGUGAAAGAGAGGAGUGAACCAGAGAAACACACGUUGUGGUAUAUUACUUGGUA [A30G C66U] has a reported self-cleavage of 0.1

In plain terms, ACCCUCUUUCACGUGCGCGUGAAAGAGAGAAGUGAACCAGAGAAACACACGUUGUGGUAUAUUACCUGGUA [G1A U2C] has a documented self-cleavage of 0.899

Documented self-cleavage of GUCCUCUUUCACGUGCGCGUGAAACAGAGAAGUGAACCAGAGUAACACACGUUGUGGUAUAUUACCUGGUA [G25C A43U] : 0.243

Entry GUCCUCUUUCACGUGCGCGUGAAAGAGAGAAGUGAACCAGAGAAACACACGUGGUGAUAUAUUACCUGGUA [U53G G57A] — recorded self-cleavage = 0.178

For record GUCCUCUUUCACGUGCGCGUGAAAGAGAGAAGUGGACCUGAGAAACACACGUUGUGGUAUAUUACCUGGUA [A35G A39U] the listed self-cleavage is 0.265

Just so you know, measured self-cleavage for GUCCUCUUUCACGUGCGCGUGAAAGAGAGAAGUGAACCAGAGAAACACACGUUGUGCUAUAGUACCUGGUA [G57C U62G] came out at 0.155

Briefly, self-cleavage measured for GUCCUCUUUCACGUGCGCGUGAAAGAGAGAAGUGAACCAGAGAAACACACGUUGUGGUAUAUCACCUGGUU [U63C A71U] : 0.191

So for GUCCUCUUUCACGUGCGCUUGAAAGAGAGAAGUGAACCAGAGAAACACUCGUUGUGGUAUAUUACCUGGUA [G19U A49U] , the logged self-cleavage turned out to be 0.158

Lab note: measured self-cleavage of GUCCUCUUUCACGUGCCCGUGAAAGAGAGAAGUGAACCAGAGAAACAUACGUUGUGGUAUAUUACCUGGUA [G17C C48U] was 0.148

Documented self-cleavage of GUCCUCUUUCACGUGCGCGUGAAAGAGAGAAGCGAACCAGAGAAACACACGUUGUGCUAUAUUACCUGGUA [U33C G57C] : 0.0819

Looking up GUCCUCUUUCACGUGCGCGUGAAACAGAGAAGUGAUCCAGAGAAACACACGUUGUGGUAUAUUACCUGGUA [G25C A36U] , I see its self-cleavage listed as 0.397
